# experimental_details: Hematology assays in cynomolgus monkeys (Example 45)
# Type: in vivo
# condition: day 85; escalating dose regimen
test_readout: hemoglobin (g/dL)
Numbers only here, please. The scale is g/dL.

Incoming: Consider the substance ISIS 416864: MOE gapmer, nucleobases 1275 to 1318 of SEQ ID NO: 1 (Table 8) (antisense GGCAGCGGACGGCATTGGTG; MOE gapmer, wing and gap sizes not given here) and give its measured hemoglobin.
Outgoing: 12.3

Switching to the query record.
Incoming: Given ISIS 416850: MOE gapmer, nucleobases 1275 to 1318 of SEQ ID NO: 1 (Table 8) (antisense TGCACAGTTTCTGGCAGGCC; MOE gapmer, wing and gap sizes not given here) , state its recorded hemoglobin.
Outgoing: 12.7

These data points were gathered from patent US20230263822A1.
